Test system: Ba/F3 cells expressing L858R/T790M/C797S (EGFR-LTC)
Test: Growth inhibition (GI50) of Ba/F3 cells expressing L858R/T790M/C797S (EGFR-LTC), Celltiter glo
Type: cell-based
Conditions: Mus musculus, BaF3, 72 h
QUANTITY KIND: GI50

Record excerpt, results attached:
> print(dat)
                                   compound        reading
1  COc1cc(N2CCC(N3CCN(C)CC3)CC2)c(Cl)cc1Nc1ncc(Cl)c(Nc2cc(Cl)ccc2N(C)S(C)(=O)=O)n1 [Example 170]     1 to 25 nM
2  COc1cc(N2CCC(N3CCN(C)CC3)CC2)c(C)cc1Nc1ncc(Cl)c(Nc2cc3c(cc2NS(C)(=O)=O)CCN3C)n1 [Example 276]  100 to 500 nM

Qu. Give its GI50 value. Item: COc1cc(N2CCC(N3CCN(C)CC3)CC2)c(C)cc1Nc1ncc(Cl)c(Nc2cc(Cl)c(F)cc2NS(C)(=O)=O)n1 [Example 176]
Ans. 1 to 25 nM

Qu. I would be grateful if you could share the reported GI50 for CN1CCN(C2CCN(c3ccc(Nc4ncc(Cl)c(Nc5ccccc5CS(C)(=O)=O)n4)cc3F)CC2)CC1 [Example 63] .
Ans. 25 to 100 nM

Qu. What does the record list as GI50 for COc1cc(N2CCC(N3CCN(C)CC3)CC2)c(F)cc1Nc1ncc(Br)c(Nc2cc(Cl)ccc2NS(C)(=O)=O)n1 [Example 92] ?
Ans. 25 to 100 nM

Qu. Look up GI50 for this compound: CC(=O)Nc1ccccc1Nc1nc(Nc2cnc(N3CCC(N4CCN(C)CC4)CC3)c(F)c2)ncc1Cl [Example 70]
Ans. 25 to 100 nM

* * *

Tested on: Ba/F3 cells expressing L858R/T790M/C797S (EGFR-LTC)
Assay: Growth inhibition (GI50) of Ba/F3 cells expressing L858R/T790M/C797S (EGFR-LTC), Celltiter glo
Type: cell-based
Settings: Mus musculus, BaF3, 72 h
QUANTITY KIND: GI50

> print(dat)
                                   molecule           reading
1  COc1cc(N2CCC(N3CCCC(N(C)C)C3)CC2)c(Cl)cc1Nc1ncc(Cl)c(Nc2cc3c(cc2NS(C)(=O)=O)CCO3)n1 (stereo not shown) [Example 219]      25 to 100 nM
2  COc1nc(N2CCS(=O)(=O)CC2)ccc1Nc1ncc(Cl)c(Nc2ccc3nccnc3c2P(C)(C)=O)n1 [Example 129]  2000 to 10000 nM
3  COc1cc(N2CCC(N3CCNCC3)CC2)c(C)cc1Nc1ncc(Br)c(Nc2cc(Cl)ccc2NS(C)(=O)=O)n1 [Example 94]        1 to 25 nM
4  COc1nc(N2CCOCC2)ccc1Nc1ncc(Br)c(Nc2ccc(F)cc2NS(C)(=O)=O)n1 [Example 29]        > 10000 nM
5  COc1cc(N2CCC(N3CCCN(C)CC3)CC2)c(C)cc1Nc1ncc(Br)c(Nc2cc3c(cc2NS(C)(=O)=O)CCO3)n1 [Example 188]        1 to 25 nM

Qu. What value of GI50 has been recorded for this entry: Cc1cc(Nc2ncc(Cl)c(Nc3cc(Cl)ccc3-c3cnn[nH]3)n2)c(Cl)cc1N1CCC(N2CCN(C)CC2)CC1 [Example 185]
Ans. 25 to 100 nM

Qu. Given COc1nc(N2CCC(N3CCN(C)CC3)CC2)c(C)cc1Nc1ncc(Cl)c(Nc2ccc3nccnc3c2P(C)(C)=O)n1 [Example 122] , state its recorded GI50.
Ans. 25 to 100 nM

* * *

Here, each record is paired with measured GI50 data.
Tested on: Ba/F3 cells expressing L858R/T790M/C797S (EGFR-LTC)
Experiment: Growth inhibition (GI50) of Ba/F3 cells expressing L858R/T790M/C797S (EGFR-LTC), Celltiter glo
Assay type: cell-based
Details: Mus musculus, BaF3, 72 h

// below: answered compounds
> print(dat)
                                   compound       reading
1  COc1cc(N2CCC(N3CCCN(C)CC3)CC2)c(C)cc1Nc1ncc(Br)c(Nc2cc(Cl)ccc2NS(C)(=O)=O)n1 [Example 89]    1 to 25 nM
2  COc1cc(N2CCC(N3CCN(C4CC4)CC3)CC2)c(C)cc1Nc1ncc(Cl)c(Nc2cc3c(cc2NS(C)(=O)=O)CCO3)n1 [Example 208]  25 to 100 nM
3  Cc1cc(Nc2ncc(Br)c(Nc3cc(Cl)ccc3NS(C)(=O)=O)n2)c(Cl)cc1N1CCC(N2CCN(C)CC2)CC1 [Example 93]  25 to 100 nM
4  COc1ccc(NS(C)(=O)=O)c(Nc2nc(Nc3cc(Cl)c(N4CCC(N5CCCC(N(C)C)C5)CC4)cc3OC)ncc2Cl)c1 (stereo not drawn) [Example 237]    1 to 25 nM
5  COc1cc(N2CCC(N3CCCN(C)CC3)CC2)c(Cl)cc1Nc1ncc(Cl)c(Nc2cc3c(cc2N(C)S(C)(=O)=O)CCO3)n1 [Example 264]  25 to 100 nM

Here's the next entry for you.
Qu. Consider the compound COc1nc(N2CCC(N3CCN(C)CC3)CC2)c(C)cc1Nc1ncc(Cl)c(Nc2cc3c(cc2NS(C)(=O)=O)CCO3)n1 [Example 241] and give its measured GI50.
Ans. 25 to 100 nM

* * *

Test system: Ba/F3 cells expressing L858R/T790M/C797S (EGFR-LTC)
Test: Growth inhibition (GI50) of Ba/F3 cells expressing L858R/T790M/C797S (EGFR-LTC), Celltiter glo
Type: cell-based
Conditions: Mus musculus, BaF3, 72 h
From the text: In this experimental example, a determination was made as to whether the compounds prepared in Examples 1-283 have the ability to inhibit the growth of Ba/F3 cells expressing EGFR-wt, del19/T790M/C797S (EGFR-DTC), L858R/T790M/C797S (EGFR-LTC), del19/T790M (EGFR-DT), and L858R/T790M (EGFR-LT) variants. The parental Ba/F3 cell line is a population of cells that are not introduced with EGFR variants. […]
QUANTITY KIND: GI50

Some compounds with recorded GI50:
> print(dat)
                                   compound                                    target  quantity.kind           reading
1  COc1cc(N2CCC(N3CCN(C)CC3)CC2)c(C)cc1Nc1ncc(Cl)c(Nc2ccccc2NC(C)=O)n1  Ba/F3 cells expressing L858R/T790M/C797S (EGFR-LTC)           GI50  2000 to 10000 nM
2  COc1cc(N2CCC(N3CCN(C)CC3)CC2)c(C)cc1Nc1ncc(Cl)c(Nc2cc(Cl)c(Cl)cc2NC(C)=O)n1  Ba/F3 cells expressing L858R/T790M/C797S (EGFR-LTC)           GI50     100 to 500 nM
3  CN1CCN(C2CCN(c3cc(F)c(Nc4ncc(Cl)c(Nc5cc6c(cc5NS(C)(=O)=O)CCO6)n4)cc3F)CC2)CC1  Ba/F3 cells expressing L858R/T790M/C797S (EGFR-LTC)           GI50     100 to 500 nM
4  Cc1cc(Nc2ncc(Cl)c(Nc3cc(Cl)c(F)cc3NS(C)(=O)=O)n2)c(Cl)cc1N1CCC(N2CCN(C)CC2)CC1  Ba/F3 cells expressing L858R/T790M/C797S (EGFR-LTC)           GI50      25 to 100 nM
5  COc1ccc(NS(C)(=O)=O)c(Nc2nc(Nc3cc(C)c(N4CCC(N5CCN(C)CC5)CC4)cc3Cl)ncc2Cl)c1  Ba/F3 cells expressing L858R/T790M/C797S (EGFR-LTC)           GI50      25 to 100 nM

Qu. Item under review: Cc1cc(Nc2ncc(Br)c(Nc3cc4c(cc3N(C)S(C)(=O)=O)CCO4)n2)c(Cl)cc1N1CCC(N2CCN(C)CC2)CC1 . Reported GI50?
Ans. 1 to 25 nM

Qu. # lookup: GI50 of COc1cc(N2CCC(N3CCCN(C)CC3)CC2)c(Cl)cc1Nc1ncc(Cl)c(Nc2cc3c(cc2NS(C)(=O)=O)CCO3)n1
Ans. 25 to 100 nM

* * *

System: Ba/F3 cells expressing L858R/T790M/C797S (EGFR-LTC)
Assay: Growth inhibition (GI50) of Ba/F3 cells expressing L858R/T790M/C797S (EGFR-LTC), Celltiter glo
Format: cell-based
Settings: Mus musculus, BaF3, 72 h
QUANTITY KIND: GI50

> print(dat)
                                   molecule        reading
1  COc1ccc(NS(C)(=O)=O)c(Nc2nc(Nc3cc(Cl)c(N4CCC(N5CCCN(C)CC5)CC4)cc3OC)ncc2Cl)c1  100 to 500 nM
2  Cc1cc(Nc2ncc(Cl)c(Nc3cc4c(cc3NS(C)(=O)=O)CCO4)n2)c(Cl)cc1N1CCC(N2CCCC(N(C)C)C2)CC1 (stereo not drawn)  100 to 500 nM
3  COc1ccc(NS(C)(=O)=O)c(Nc2nc(Nc3cc(C)c(N4CCC(N5CCC(N(C)C)C5)CC4)cc3Cl)ncc2Cl)c1 (stereo not drawn)  100 to 500 nM
4  Cc1cc(Nc2ncc(Br)c(Nc3cc4c(cc3NS(C)(=O)=O)CCO4)n2)c(Cl)cc1N1CCC(N2CCN(C)CC2)CC1   25 to 100 nM
5  COc1cc(N2CCC(N3CCN(C)CC3)CC2)ccc1Nc1ncc(Br)c(Nc2cc3c(cc2NS(C)(=O)=O)CCO3)n1     1 to 25 nM

Switching to the query record.
Qu. Would you mind telling me what GI50 value was observed for COc1cc(N2CCC(N3CCCC(N(C)C)C3)CC2)c(C)cc1Nc1ncc(Cl)c(Nc2cc3c(cc2N(C)S(C)(=O)=O)CCO3)n1 (stereo not drawn) ?
Ans. 25 to 100 nM
